Where these numbers come from: patent US20180305431A1

Known Lipogenesis 1% HSA (% rel to HI) of a selection of binders
Target: insulin receptor on primary rat adipocytes (rat) (UniProt P15127)
Sequence (P15127 27-1383): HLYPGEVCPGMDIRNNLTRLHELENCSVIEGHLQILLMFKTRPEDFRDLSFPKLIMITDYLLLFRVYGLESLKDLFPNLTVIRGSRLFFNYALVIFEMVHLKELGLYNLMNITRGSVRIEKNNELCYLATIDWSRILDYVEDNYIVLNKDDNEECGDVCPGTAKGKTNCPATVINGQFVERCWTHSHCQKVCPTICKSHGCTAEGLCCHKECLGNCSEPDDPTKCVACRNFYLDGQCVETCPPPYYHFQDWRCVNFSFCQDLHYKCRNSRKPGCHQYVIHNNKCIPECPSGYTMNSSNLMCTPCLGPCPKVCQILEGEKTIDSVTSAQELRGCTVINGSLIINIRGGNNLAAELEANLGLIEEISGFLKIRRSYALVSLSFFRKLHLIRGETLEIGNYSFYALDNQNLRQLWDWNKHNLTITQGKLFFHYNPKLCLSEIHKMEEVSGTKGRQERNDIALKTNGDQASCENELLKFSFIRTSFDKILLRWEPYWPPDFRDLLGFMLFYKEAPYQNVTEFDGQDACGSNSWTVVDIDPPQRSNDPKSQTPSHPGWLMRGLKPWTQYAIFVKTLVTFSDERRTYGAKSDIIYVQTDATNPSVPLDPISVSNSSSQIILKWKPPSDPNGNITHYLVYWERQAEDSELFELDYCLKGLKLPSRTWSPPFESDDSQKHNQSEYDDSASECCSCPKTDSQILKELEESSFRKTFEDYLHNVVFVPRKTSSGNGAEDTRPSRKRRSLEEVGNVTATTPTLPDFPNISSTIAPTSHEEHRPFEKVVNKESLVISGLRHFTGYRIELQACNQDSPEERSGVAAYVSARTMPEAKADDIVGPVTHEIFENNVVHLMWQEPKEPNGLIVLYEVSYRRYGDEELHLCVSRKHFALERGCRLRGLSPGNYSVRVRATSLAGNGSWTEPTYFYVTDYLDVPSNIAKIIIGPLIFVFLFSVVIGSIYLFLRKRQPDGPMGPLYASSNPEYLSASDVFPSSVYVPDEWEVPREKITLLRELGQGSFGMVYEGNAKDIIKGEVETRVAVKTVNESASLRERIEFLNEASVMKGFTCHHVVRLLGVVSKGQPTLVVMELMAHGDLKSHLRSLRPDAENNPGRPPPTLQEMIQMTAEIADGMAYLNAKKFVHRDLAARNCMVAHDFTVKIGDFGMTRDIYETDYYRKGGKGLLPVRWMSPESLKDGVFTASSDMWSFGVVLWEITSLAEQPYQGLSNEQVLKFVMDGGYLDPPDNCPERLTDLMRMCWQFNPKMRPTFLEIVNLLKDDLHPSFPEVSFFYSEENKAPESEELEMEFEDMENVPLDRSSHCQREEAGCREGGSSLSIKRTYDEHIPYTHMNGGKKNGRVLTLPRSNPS
Experiment: cell-based or functional assay

| BINDER | PROPERTY_LABEL | VALUE_REPORTED |
| --- | --- | --- |
| A8R, A22K(N(eps)tetradecanedioyl-4xgGlu), B3E, B26E, B28E, B29R, desB30 human insulin (ligand, not fully specified; Lys A22 acylated on N(eps) with tetradecanedioyl-4xgGlu, Two-chain acylated insulin analogue; also called Ex. No. 23) chain 1: GIVEQCCRSICSLYQLENYCNK chain 2: FVEQHLCGSHLVEALYLVCGERGFFETER | Lipogenesis 1% HSA (% rel to HI) | 59 % rel to HI |
| A14E, A22K(N(eps)hexadecanedioyl-gGlu-2xOEG), B3E, B27E, B28E, B29R, desB30 human insulin (ligand, not fully specified; Lys A22 acylated on N(eps) with hexadecanedioyl-gGlu-2xOEG, Two-chain acylated insulin analogue; also called Ex. No. 26) chain 1: GIVEQCCTSICSLEQLENYCNK chain 2: FVEQHLCGSHLVEALYLVCGERGFFYEER | Lipogenesis 1% HSA (% rel to HI) | 2.6 % rel to HI |
| A14E, A22K(N(eps)tetradecanedioyl-4xgGlu), B3E, B27E, B28E, B29R, desB30 human insulin (ligand, not fully specified; Lys A22 acylated on N(eps) with tetradecanedioyl-4xgGlu, Two-chain acylated insulin analogue; also called Ex. No. 4) chain 1: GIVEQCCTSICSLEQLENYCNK chain 2: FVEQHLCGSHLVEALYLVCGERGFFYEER | Lipogenesis 1% HSA (% rel to HI) | 15.4 % rel to HI |

Please report Lipogenesis 1% HSA (% rel to HI) for the following binder: A8R, A22K(N(eps)tetradecanedioyl-4xgGlu), B3E, B26E, B29R, desB30 human insulin (ligand, not fully specified; Lys A22 acylated on N(eps) with tetradecanedioyl-4xgGlu, Two-chain acylated insulin analogue; also called Ex. No. 15) chain 1: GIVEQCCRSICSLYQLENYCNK chain 2: FVEQHLCGSHLVEALYLVCGERGFFETPR
70.9 % rel to HI

Check the records and state Lipogenesis 1% HSA (% rel to HI) for A8R, A22K(N(eps)tetradecanedioyl-4xgGlu), B3E, B26E, B27E, B28R, desB29, desB30 human insulin (ligand, not fully specified; Lys A22 acylated on N(eps) with tetradecanedioyl-4xgGlu, Two-chain acylated insulin analogue; also called Ex. No. 19) chain 1: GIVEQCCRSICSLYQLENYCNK chain 2: FVEQHLCGSHLVEALYLVCGERGFFEER
80.3 % rel to HI

Look up and report measured Lipogenesis 1% HSA (% rel to HI) for this entry: A8R, A22K(N(eps)tetradecanedioyl-4xgGlu), B3E, B27E, B28E, B29R, desB30 human insulin (ligand, not fully specified; Lys A22 acylated on N(eps) with tetradecanedioyl-4xgGlu, Two-chain acylated insulin analogue; also called Ex. No. 24) chain 1: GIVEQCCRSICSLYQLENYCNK chain 2: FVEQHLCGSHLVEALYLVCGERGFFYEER
78.6 % rel to HI
